The reported measurements were obtained from PubChem BioAssay AID1259407.

- System: CCRIS mutagenicity, Ames/micronucleus/aberration tests
- test name: CCRIS mutagenicity studies
- condition description: Test System: AMES SALMONELLA TYPHIMURIUM; Strain/Indicator: TA98; Metabolic Activation: NONE; Method: PREINCUBATION
Activity calls are given as the source filed them. The rule behind the calls is not given here.
Would you mind answering with one of these outcomes? TRUE = active, FALSE = inactive

Record excerpt, results attached:
compound | assay target | assigned label
CCCN(CCC)S(=O)(=O)c1ccc(C(=O)O)cc1 | CCRIS mutagenicity, Ames/micronucleus/aberration tests | FALSE
CC/C=C/C#N | CCRIS mutagenicity, Ames/micronucleus/aberration tests | FALSE
CNCCO | CCRIS mutagenicity, Ames/micronucleus/aberration tests | FALSE
CC(=O)Nc1ccc(O)cc1 | CCRIS mutagenicity, Ames/micronucleus/aberration tests | FALSE
Oc1c(Cl)ccc(Cl)c1Cl | CCRIS mutagenicity, Ames/micronucleus/aberration tests | FALSE
Nc1ccc(Cc2ccc(NO)c(Cl)c2)cc1Cl | CCRIS mutagenicity, Ames/micronucleus/aberration tests | TRUE

Test call for this compound, please: Oc1ccc2cc(SSc3ccc4cc(O)ccc4c3)ccc2c1
FALSE

Recorded test outcome, item CC(C)C(C)C
FALSE

Outcome? Cl/C=C\Cl
FALSE

Which outcome was entered for the compound Oc1ccc(Cl)c(Cl)c1 in this test?
FALSE

Hey, what did the test say about Cl ?
FALSE

Assay result, entry Cc1ccccc1N=Nc1c(O)ccc2ccccc12 — outcome?
FALSE

GET /call?item= Cc1ccc(C#N)cc1 returns the recorded outcome of this test.
FALSE

What classification did CCCCN(CCO)CCCC end up with in this test?
FALSE

How did this test come out for O[C@H]1[C@@H]2O[C@@H]2c2c(ccc3cc4ccc5ccccc5c4nc23)[C@@H]1O ?
TRUE

So what was the verdict on CC(C)(C)OOC(=O)c1ccccc1 in this test?
TRUE

Field: outcome | Entry: C=CCOC(=O)CC(C)C
FALSE

Please indicate how the test categorized CC(=O)Nc1ccc2cccnc2c1 .
FALSE

Assay outcome for N#Cc1ccc([N+](=O)[O-])cc1 : what was it?
FALSE

Call for entry CCCCC(CC)COS(=O)(=O)O (stereo not given) :
FALSE

Write down the call the test reported for this compound. Item: O=[N+]([O-])c1cc2c3c(ccc2c2ccccc12)[C@H](O)[C@@H](O)C=C3
TRUE

// param item: CC(=O)N(O)c1ccc(/C=C/c2ccccc2)cc1 ; yields the recorded call
FALSE

Which outcome was assigned to O=C(O)CNCP(=O)(O)O in this test?
FALSE

Recorded test outcome, item COC(=O)C(=Cc1ccc([N+](=O)[O-])o1)[N+](=O)[O-]
TRUE

Recorded test call requested for CC(=O)c1cc2c(cc1C)C(C)(C)C(C)CC2(C)C (stereo not given)
FALSE

Which result was noted for this compound in the test: COC(=O)CC(=O)OC
FALSE

Each compound tested received a call. Report the one for NNc1ccc([N+](=O)[O-])cc1 .
TRUE
